- experimental-target: Geranylgeranyl transferase type I (Homo sapiens, UniProt P49354+P53609)
- assay-procedure: Concentration required to inhibit recombinant human geranylgeranyl transferase type I (GGTase-I) catalyzed incorporation of [3H]GGPP to the C-terminus of human K-Ras.
property-label: IC50 (nM)

Reference set, count: 2
molecule="CCC1(c2cccc(Oc3cc(Cn4ccnc4)ccc3C#N)c2)CCCCN(C(C)=O)C1 (centres undefined)" units_text=nM data_value=8.9
molecule="CCC1(c2cccc(Oc3cc(Cn4ccnc4)ccc3C#N)c2)CCCCN(C)C1=O (racemic)" units_text=nM data_value=7.2

a = CCC1(c2cccc(Oc3cc(Cc4cncn4C)ccc3C#N)c2)CCCCN(C)C1=O (centres undefined)
b = CN1CCCC[C@@H](c2cccc(Oc3cc([C@](C)(N)c4cncn4C)ccc3C#N)c2)C1=O
Of a and b , whose reported IC50 is numerically smaller? Return value: the label identifying the chosen record.
a
